In this section we review reported inhibition at 10 µM values for a set of compounds.
# System: THP-1
# testDescription: Antiinflammatory activity in human THP1 cells assessed as inhibition of LPS-induced IL-6 secretion at 10 uM treated 30 mins before LPS challenge measured after 24 hrs by ELISA relative to control
# Assay type: functional
Hi! Could you send only the number? It should be in %, unit omitted.

// below: answered compounds
- compoundString: "COc1cc(O)c(C(=O)/C=C/C=C(\\Cl)c2ccccc2Cl)c(OC)c1"
  studySystem: "THP-1"
  readingUnit: "%"
  numericValue: 43
- compoundString: "COc1ccc(/C(Cl)=C/C=C/C(=O)c2c(O)cc(OC)cc2OC)c(OC)c1"
  studySystem: "THP-1"
  readingUnit: "%"
  numericValue: 33
- compoundString: "COc1cccc(/C(Cl)=C/C=C/C(=O)c2c(O)cc(OC)cc2OC)c1"
  studySystem: "THP-1"
  readingUnit: "%"
  numericValue: 39
- compoundString: "COc1cc(O)c(C(=O)/C=C/C=C(\\Cl)c2ccc(Cl)cc2)c(OC)c1"
  studySystem: "THP-1"
  readingUnit: "%"
  numericValue: 74
- compoundString: "COc1cc(OC)cc(/C(Cl)=C/C=C/C(=O)c2c(O)cc(OC)cc2OC)c1"
  studySystem: "THP-1"
  readingUnit: "%"
  numericValue: 45
- compoundString: "COc1cc(O)c(C(=O)/C=C/C=C(\\Cl)c2ccc(C)cc2)c(OC)c1"
  studySystem: "THP-1"
  readingUnit: "%"
  numericValue: 36
- compoundString: "COc1cc(O)c(C(=O)/C=C/C=C(\\Cl)c2ccc(Cl)cc2Cl)c(OC)c1"
  studySystem: "THP-1"
  readingUnit: "%"
  numericValue: 67
- compoundString: "COc1ccc(/C(Cl)=C/C=C/C(=O)c2c(O)cc(OC)cc2OC)cc1"
  studySystem: "THP-1"
  readingUnit: "%"
  numericValue: 78
- compoundString: "COc1cc(O)c(C(=O)/C=C/C=C(\\Cl)c2cccc(Cl)c2)c(OC)c1"
  studySystem: "THP-1"
  readingUnit: "%"
  numericValue: 31
- compoundString: "COc1cc(O)c(C(=O)/C=C/C=C(\\Cl)c2ccc(F)cc2)c(OC)c1"
  studySystem: "THP-1"
  readingUnit: "%"
  numericValue: 83

Record COc1cc(O)c(C(=O)/C=C/C=C(\Cl)c2ccc(Br)cc2)c(OC)c1 : what is its inhibition at 10 µM with THP-1?
58

Record C[C@@H]1C[C@H]2[C@@H]3CCC4=CC(=O)C=C[C@]4(C)[C@@]3(F)[C@@H](O)C[C@]2(C)[C@@]1(O)C(=O)CO : what is its inhibition at 10 µM with THP-1?
90

The measured values listed here are drawn from ChEMBL document CHEMBL1165858.
